Source listed as patent US12679860B2.

System: embryonic dorsal root ganglion (DRG) sensory neuron cultures
Experiment: Glucotoxicity assay: cell viability (calcein AM) of DRG sensory neurons under glucose-induced toxicity
Type: cell-based, Sprague Dawley rat
Conditions: Rattus norvegicus, Neuron; 0.1-1000 nM novologue overnight, then 4 hrs of hyperglycemia; mean±SEM (n=3-8); read-out: EC50 for protection against glucose-induced toxicity
Assign EC50 to each entry below.

I'd like to know its EC50. The compound in question is CO[C@@H]1[C@@H](O)[C@@H](O)C(Oc2ccc(CCNC(C)=O)c(-c3ccccc3SC)c2)OC1(C)C (stereo partly shown) [11h]
384 nM

I'd like to know its EC50. The compound in question is CO[C@@H]1[C@@H](O)[C@@H](O)C(Oc2ccc(CCNC(C)=O)c(-c3ccc4c(c3)OCO4)c2)OC1(C)C (stereo partly shown) [11n]
18.4 nM

I'd like to know its EC50. The compound in question is CO[C@@H]1[C@@H](O)[C@@H](O)C(Oc2ccc(CCNC(C)=O)c(-c3cccc(F)c3)c2)OC1(C)C (stereo partly shown) [11b]
13 nM

I'd like to know its EC50. The compound in question is CO[C@@H]1[C@@H](O)[C@@H](O)C(Oc2ccc(CCNC(C)=O)c(-c3cccc(C(F)(F)F)c3)c2)OC1(C)C (stereo partly shown) [11f]
188 nM
